# System: K562
# Protocol Notes: Effect on G2/M phase of the cell cycle by flow cytometry
# Format: functional, Homo sapiens
Quantity: Activity
API doc: respond with a numeric literal and nothing else, no unit.

Consider the molecule shown here: COc1ccc(/C=C2\Oc3c(cc(OC)c(OC)c3OC)C2=O)cc1F What is its recorded Activity?
77

Consider the molecule shown here: COc1ccc(-c2cc(=O)c3cc(OC)c(OC)c(OC)c3o2)cc1O What is its recorded Activity?
38

Consider the molecule shown here: COc1ccc(/C=C2\Oc3c(cc(OC)c(OC)c3OC)C2=O)cc1O What is its recorded Activity?
69

Consider the molecule shown here: COc1ccc(/C=C(\C)C(=O)c2cc(OC)c(OC)c(OC)c2)cc1O What is its recorded Activity?
83

Consider the molecule shown here: COc1cc2c(c(OC)c1OC)O/C(=C\c1ccc(O)c(O)c1)C2=O What is its recorded Activity?
39

Consider the molecule shown here: COc1cc2c(c(OC)c1OC)C(=O)/C(=C/c1ccc(O)c(O)c1)O2 What is its recorded Activity?
25

====

Observed pIC50 for Tubulin alpha chain (Sus scrofa, UniProt P02550), reported per entry below.
# reply with the number alone; pIC50 is -log10 of concentration in mol/L

COc1ccc(/C=C(\C)C(=O)c2cc(OC)c(OC)c(OC)c2)cc1O: 6.30

Identify the measured pIC50 of COc1ccc(-c2cc(=O)c3cc(OC)c(OC)c(OC)c3o2)cc1O for Tubulin alpha chain (Sus scrofa, UniProt P02550).
4.60

====

# System: K562
# Protocol Notes: Effect on G0-G1 phase of the cell cycle by flow cytometry
# Assay type: functional, Homo sapiens
Hi! Could you tag entries with Activity below 20 as t, and those at or above as f? Much appreciated.

COc1ccc(-c2cc(=O)c3cc(OC)c(OC)c(OC)c3o2)cc1O: f
COc1cc2c(c(OC)c1OC)O/C(=C\c1ccc(O)c(O)c1)C2=O: f
COc1ccc(/C=C2\Oc3c(cc(OC)c(OC)c3OC)C2=O)cc1O: t

A record lists COc1ccc(/C=C(\C)C(=O)c2cc(OC)c(OC)c(OC)c2)cc1O . Is its Activity below 20?
t

A record lists COc1ccc(/C=C2\Oc3c(cc(OC)c(OC)c3OC)C2=O)cc1F . Is its Activity below 20?
t

A record lists COc1cc2c(c(OC)c1OC)C(=O)/C(=C/c1ccc(O)c(O)c1)O2 . Is its Activity below 20?
f

====

# Tested System: Tubulin alpha chain (Sus scrofa, UniProt P02550)
# Sequence (P02550 whole entry, looked up): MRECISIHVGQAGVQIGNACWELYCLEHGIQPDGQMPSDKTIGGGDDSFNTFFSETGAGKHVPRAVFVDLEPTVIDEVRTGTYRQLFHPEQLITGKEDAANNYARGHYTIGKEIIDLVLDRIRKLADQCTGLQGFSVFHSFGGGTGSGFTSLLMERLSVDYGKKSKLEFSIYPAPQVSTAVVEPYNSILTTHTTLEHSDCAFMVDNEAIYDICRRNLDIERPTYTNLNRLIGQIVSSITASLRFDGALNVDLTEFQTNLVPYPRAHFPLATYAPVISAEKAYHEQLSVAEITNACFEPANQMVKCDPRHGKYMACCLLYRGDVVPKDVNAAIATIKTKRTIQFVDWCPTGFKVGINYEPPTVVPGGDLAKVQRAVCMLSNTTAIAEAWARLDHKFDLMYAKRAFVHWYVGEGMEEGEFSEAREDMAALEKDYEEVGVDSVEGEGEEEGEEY
# Protocol Notes: Concentration that cause a 50% inhibition in tubulin assembly as measured by an increase in turbidity using microtubule assembly assay
Quantity: IC50

COc1ccc(/C=C2\Oc3cc(OC)c(OC)c(OC)c3C2=O)cc1O: > 50 µM
COc1ccc(/C=C2\Oc3cc(OC)c(OC)c(OC)c3C2=O)cc1F: > 50 µM

Consider the compound shown here: COc1ccc(-c2cc(=O)c3c(OC)c(OC)c(OC)cc3o2)cc1O What is its recorded IC50?
> 50 µM
